Provide the reported inhibition at 10 µM of each item.
- Test system: MALME-3M
- testDetails: NCI one-dose assay
- Assay type: cell-based
- assayContext: Homo sapiens, Melanoma, read-out: Cell growth inhibition %
Quick note: give the figure in %, leave out the unit.

// query Record `COc1ccc(C(=O)CSc2nnc(-c3c[nH]c4ccccc34)n2-c2ccccc2)cc1` : what is its inhibition at 10 µM with MALME-3M?
// result 116

// query Notebook entry, MALME-3M assay: inhibition at 10 µM of `O/N=C(\CSc1nnc(-c2c[nH]c3ccccc23)n1-c1ccccc1)c1ccc(Br)cc1` = ?
// result 110

// query Field: inhibition at 10 µM (MALME-3M). Entry: `C=CCn1c(SCC(=O)c2ccc(Br)cc2)nnc1-c1c[nH]c2ccccc12`
// result 9.34

// query Notebook: pull reported inhibition at 10 µM for MALME-3M, entry `O=C(CSc1nnc(-c2c[nH]c3ccccc23)n1-c1ccccc1)c1ccccc1`
// result 62.6

// query Item `Cc1ccc(C(=O)CSc2nnc(-c3c[nH]c4ccccc34)n2-c2ccccc2)cc1` with MALME-3M - inhibition at 10 µM?
// result 64.8

// query inhibition at 10 µM of `O/N=C(\CSc1nnc(-c2c[nH]c3ccccc23)n1-c1ccccc1)c1ccccc1` on MALME-3M?
// result 23.9

// query Could you share what inhibition at 10 µM was measured for `C=CCn1c(SCC(=NO)c2ccc(OC)cc2)nnc1-c1c[nH]c2ccccc12` , tested on MALME-3M?
// result 3.2

// query Form field - read-out: inhibition at 10 µM; system: MALME-3M; submitted item: `O=C(CSc1nnc(-c2c[nH]c3ccccc23)n1-c1ccccc1)c1ccc(Br)cc1`
// result 29

---

- System: UO-31
- testDetails: NCI one-dose assay
- Assay type: cell-based, human
- assayContext: Homo sapiens, UO-31, UO-31, Renal cancer, read-out: Cell growth inhibition %
Decide by inhibition at 10 µM: equal to or exceeding 50% means yes, less means no.

// query Tell me whether inhibition at 10 µM is at least 50% here: O/N=C(\CSc1nnc(-c2c[nH]c3ccccc23)n1-c1ccccc1)c1ccccc1 [Compound 7f]
// result yes

// query Hello, I need to know if C=CCn1c(SC/C(=N\O)c2ccccc2)nnc1-c1c[nH]c2ccccc12 [Compound 7a] has measured inhibition at 10 µM not below 50%. Thanks!
// result no

// query Exam item: decide whether the reported inhibition at 10 µM for C=CCn1c(SCC(=O)c2ccc(C)cc2)nnc1-c1c[nH]c2ccccc12 [Compound 6c] is at least 50%.
// result no

// query # check: inhibition at 10 µM of O=C(CSc1nnc(-c2c[nH]c3ccccc23)n1-c1ccccc1)c1ccc(Br)cc1 [Compound 6i] is greater than or equal to 50%
// result yes

// query Form field: inhibition at 10 µM at least 50%? Entry: O=C(CSc1nnc(-c2c[nH]c3ccccc23)n1-c1ccccc1)c1ccc(Cl)cc1 [Compound 6j]
// result no

// query Could you tell me if the measured inhibition at 10 µM of C=CCn1c(SCC(=O)c2ccc(Cl)cc2)nnc1-c1c[nH]c2ccccc12 [Compound 6e] reaches 50% or more?
// result no

// query Is the recorded value of inhibition at 10 µM equal to or greater than 50% for this molecule? C=CCn1c(SCC(=O)c2ccccc2)nnc1-c1c[nH]c2ccccc12 [Compound 6a]
// result no

// query Record Cc1ccc(/C(CSc2nnc(-c3c[nH]c4ccccc34)n2-c2ccccc2)=N/O)cc1 [Compound 7h] ; criterion: inhibition at 10 µM no lower than 50%. Met?
// result yes
